# Organism: Homo sapiens
# PROTOCOL DESCRIPTION: Liver toxicity in human assessed as induction of drug-induced liver injury by measuring verified drug-induced liver injury concern status
MEASUREMENT TYPE: DILI_Concern

Look up DILI_Concern for this compound: "NC(=O)CC[C@@H]1NC(=O)[C@H](Cc2ccccc2)NC(=O)[C@H](Cc2ccc(O)cc2)NC(=O)CCSSC[C@@H](C(=O)N2CCC[C@H]2C(=O)N[C@H](CCCN=C(N)N)C(=O)NCC(N)=O)NC(=O)[C@H](CC(N)=O)NC1=O"
Ambiguous-Dili-Concern

Look up DILI_Concern for this compound: CC(=O)O.CCNC(=O)[C@@H]1CCCN1C(=O)[C@H](CCCNC(=N)N)NC(=O)[C@H](CC(C)C)NC(=O)[C@@H](Cc1cn(Cc2ccccc2)cn1)NC(=O)[C@H](Cc1ccc(O)cc1)NC(=O)[C@H](CO)NC(=O)[C@H](Cc1c[nH]c2ccccc12)NC(=O)[C@H](Cc1cnc[nH]1)NC(=O)[C@@H]1CCC(=O)N1 [HISTRELIN ACETATE]
Ambiguous-Dili-Concern

Look up DILI_Concern for this compound: C[C@H](N[C@@H](CCc1ccccc1)C(=O)O)C(=O)N1CCC[C@H]1C(=O)O [ENALAPRILAT ANHYDROUS]
Ambiguous-Dili-Concern

Look up DILI_Concern for this compound: "S=P(N1CC1)(N1CC1)N1CC1"
Less-Dili-Concern

Look up DILI_Concern for this compound: "CC(C)(C#N)c1cc(Cn2cncn2)cc(C(C)(C)C#N)c1"
Less-Dili-Concern

Now let's try a different one.
Look up DILI_Concern for this compound: Cc1ccccc1C(=O)Nc1ccc(C(=O)N2CCCC(O)c3cc(Cl)ccc32)c(C)c1 (stereo not drawn)
Most-Dili-Concern

====

# Species: Homo sapiens
# PROTOCOL DESCRIPTION: Liver toxicity in human assessed as induction of drug-induced liver injury by measuring severity class index
The molecules listed here are annotated with their DILI_severity_class.

Look up DILI_severity_class for this molecule: CO/N=C(\C(=O)N[C@@H]1C(=O)N2C(C(=O)O)=C(COC(N)=O)CS[C@H]12)c1ccco1 [CEFUROXIME]
5

====

The compounds listed here are annotated with their DILI_severity_class.
# Species: Homo sapiens
# PROTOCOL DESCRIPTION: Liver toxicity in human assessed as induction of drug-induced liver injury by measuring severity class index
Please give the numeric answer without any surrounding text.

Look up DILI_severity_class for this compound: N[C@@H](Cc1cc(I)c(Oc2ccc(O)c(I)c2)c(I)c1)C(=O)O [LIOTHYRONINE]
0

Look up DILI_severity_class for this compound: c1cnc2cc3c(cc2n1)[C@@H]1CNC[C@H]3C1 [VARENICLINE]
2

Look up DILI_severity_class for this compound: N=C(N)c1ccc(OCCCCCOc2ccc(C(=N)N)cc2)cc1 [PENTAMIDINE]
3

Look up DILI_severity_class for this compound: CCCCN1C(=O)[C@@H]([C@H](O)C2CCCCC2)NC(=O)C12CCN(Cc1ccc(Oc3ccc(C(=O)O)cc3)cc1)CC2 [APLAVIROC]
8

Look up DILI_severity_class for this compound: N[C@@H]1C[C@H]1c1ccccc1.N[C@H]1C[C@@H]1c1ccccc1 [TRANYLCYPROMINE]
3

Next:
Look up DILI_severity_class for this compound: Nc1ncn([C@H]2C[C@H](O)[C@@H](CO)O2)c(=O)n1 [DECITABINE]
4

Look up DILI_severity_class for this compound: NCC1O[C@H](O[C@H]2[C@@H](O)[C@H](O[C@H]3[C@H](O)[C@@H](N)C[C@@H](N)[C@@H]3O[C@H]3O[C@H](CN)[C@@H](O)[C@H](O)[C@H]3N)O[C@@H]2CO)[C@H](N)[C@@H](O)[C@@H]1O (stereo partly drawn)
0

Look up DILI_severity_class for this compound: Cc1cccc(C)c1NC(=O)C1CCCCN1C (stereo not drawn) [MEPIVACAINE]
0
